- Assay Details: Pharmacokinetic (PK) studies, oral dose
- Applied Conditions: C57/BL6, mouse, blood, oral, 5 mg/kg
Measurement Label: half-life (h)
Respond numerically; units are h and should not be typed.

# compound Cc1ccccc1-n1nnc(C(=O)Nc2ccc3cc(CN4CCNCC4)ccc3n2)c1C ; its half-life = 2.67

###

- Assay Details: Toxicity in normal HEK293 cells
- Assay type: cell-based
- Applied Conditions: human
pIC50: −log10 of the molar value.
Measurement Label: pIC50

# compound Cc1ccccc1-n1nnc(C(=O)Nc2ccc3cc(CN4CCNCC4)ccc3n2)c1C [YA6060] ; its pIC50 = < 4.00

###

- System: Wnt/β-Catenin signaling pathway
- Assay Details: Wnt signaling luciferase (TOPflash) reporter gene assay
- Type: cell-based
- Applied Conditions: luciferase reporter gene assay; mean of three independent experiments; read-out: IC50 (nM) to inhibit the Wnt signaling activity
IC50 reference

{"columns": ["Compound", "Measurement Label", "Result"],
 "data": [
  ["Cc1ccccc1-n1nnc(C(=O)Nc2nc3cc(Br)ccc3s2)c1C [YA4047]", "IC50", "> 1000 nM"],
  ["Cc1c(C(=O)Nc2nc3ccccc3s2)nnn1-c1ccccc1C(F)(F)F [YA6089]", "IC50", "17 nM"],
  ["Cc1c(C(=O)Nc2nc3ccccc3s2)nnn1-c1ccccc1 [YA6029]", "IC50", "7.82 nM"],
  ["Cc1cc(C(=O)Nc2nc3ccccc3s2)c(C)n1-c1ccccc1 [YA4136]", "IC50", "> 1000 nM"]
]}

# compound Cc1ccccc1-n1nnc(C(=O)Nc2nc3c(F)cccc3s2)c1C [YA4093] ; its IC50 = > 1000 nM
